src = patent US8344010B2

target: Human TRPV3 (Homo sapiens, UniProt Q8NET8); construct: expressed in transfected cells; host or cells: CHO cells (selected with G-418); assay: 45Calcium uptake assay: inhibition of 2-APB induced cellular uptake of radioactive calcium; assay type: cell-based; details: class symbol; human TRPV3 expressing CHO cells; 2-APB 500 μM
pIC50: −log10 of the molar value.
The compounds listed here are annotated with their pIC50.

Take a look at these entries with their results.
>  <Compound>
CCCCCOc1c(/C=C/c2nc3c(F)c(F)c(F)cc3n2-c2ccc(C#N)cn2)cccc1OC [Example 81]

>  <Endpoint Value>
> 7.30

$$$$
>  <Compound>
COc1cccc(/C=C/c2nc3ccccc3n2-c2ccc(Cl)cn2)c1OC1CCCC1 [Example 3]

>  <Endpoint Value>
< 6.30

$$$$
>  <Compound>
COc1cccc(/C=C/c2nc3ccccc3n2-c2ccc(C#N)cn2)c1OCc1ccccc1C(F)(F)F [Example 16]

>  <Endpoint Value>
7.00 to 7.30

$$$$
>  <Compound>
COc1cccc(/C=C/c2nc3cc(C)c(C)cc3n2-c2ccc(C#N)cn2)c1OC1CCCC1 [Example 62]

>  <Endpoint Value>
6.30 to 7.00

$$$$
>  <Compound>
FC(F)Oc1cccc(/C=C/c2nc3cccnc3n2-c2ccc(C(F)(F)F)cc2)c1OCC1CCC1 [Example 99]

>  <Endpoint Value>
< 6.30

$$$$

Consider COc1cccc(/C=C/c2nc3ccccc3n2Cc2ccc(C#N)cc2)c1OC1CCCC1 [Example 43] . Its measured pIC50 is 6.30 to 7.00

Lab note: measured pIC50 of COc1cccc(/C=C/c2nc3cc(F)c(F)cc3n2-c2ccc(C#N)nn2)c1OC1CCCC1 [Example 76] was 6.30 to 7.00

* * *

molecular target: Human TRPV3 (Homo sapiens); construct: expressed in transfected cells; host or cells: CHO cells (selected with G-418); assay: 45Calcium uptake assay: inhibition of 2-APB induced cellular uptake of radioactive calcium; type: cell-based; details: 1 μM test compound; human TRPV3 expressing CHO cells; 2-APB 500 μM; read-out: Percentage Inhibition (1 μM)
Is inhibition at 1 µM at least 90%? Then Criterion met. If not, Criterion not met.

Reference set, count: 5
>  <Mol Smiles>
COc1cccc(/C=C/c2nc3cnccc3n2-c2ccc(C#N)cn2)c1OC1CCCC1

>  <Category Label>
Criterion not met

$$$$
>  <Mol Smiles>
COc1cccc(/C=C/c2nc3ccccc3n2-c2nc(C)c(C#N)s2)c1OC1CCCC1

>  <Category Label>
Criterion not met

$$$$
>  <Mol Smiles>
CCCCCOc1c(/C=C/c2nc3cc(Cl)cnc3n2-c2ccc(C#N)cn2)cccc1OC

>  <Category Label>
Criterion met

$$$$
>  <Mol Smiles>
COc1cccc(/C=C/c2nc3ccc(Cl)cc3n2-c2ccc(C#N)cn2)c1OC1CCCC1

>  <Category Label>
Criterion met

$$$$
>  <Mol Smiles>
COc1cccc(/C=C/c2nc3ccccc3n2-c2nccs2)c1OCC1CC1

>  <Category Label>
Criterion not met

$$$$

QUERY: Is reported inhibition at 1 µM greater than or equal to 90% here: CCCCOc1c(/C=C/c2nc3ccccc3n2-c2ccc(C(F)(F)F)cn2)cccc1OC
RESULT: Criterion not met

QUERY: Evaluate N#Cc1ccc(-n2c(/C=C/c3cccc(OC(F)F)c3OC3CCCC3)nc3cc(F)c(F)cc32)nc1 : inhibition at 1 µM at minimum 90%?
RESULT: Criterion met

* * *

biological target: Human TRPV3 (Homo sapiens); construct: expressed in transfected cells; host or cells: CHO cells (selected with G-418); assay: 45Calcium uptake assay: inhibition of 2-APB induced cellular uptake of radioactive calcium; assay type: cell-based; conditions: class symbol; human TRPV3 expressing CHO cells; 2-APB 500 μM
pIC50: −log10 of the molar value.
Readings of pIC50 for the listed molecules

>  <Molecule>
COc1cccc(/C=C/c2nc3ccccc3n2-c2ccc(C#N)cn2)c1OCc1ccccc1F [Example 14]

>  <pIC50>
6.30 to 7.00

$$$$
>  <Molecule>
COc1cccc(/C=C/c2nc3ccccc3n2-c2ncccc2C(F)(F)F)c1OC1CCCC1 [Example 24]

>  <pIC50>
< 6.30

$$$$
>  <Molecule>
COc1cccc(/C=C/c2nc3ccccc3n2-c2ccc(C#N)cn2)c1OCC(C)C [Example 11]

>  <pIC50>
6.30 to 7.00

$$$$
>  <Molecule>
COc1cccc(/C=C/c2nc3ccccc3n2-c2ccc(C(F)(F)F)cn2)c1OCc1ccccc1 [Example 28]

>  <pIC50>
6.30 to 7.00

$$$$
>  <Molecule>
COc1cccc(/C=C/c2nc3ccccc3n2-c2ccc(C#N)cn2)c1OC1CCCC1 [Example 13]

>  <pIC50>
6.30 to 7.00

$$$$

Moving on to another molecule below.
Given item CCCCOc1c(/C=C/c2nc3ccccc3n2-c2ccc(C#N)cn2)cccc1OC [Example 8] , the value recorded as its pIC50 is 6.30 to 7.00

* * *

Biological target: Human TRPV3 (Homo sapiens)
Construct: expressed in transfected cells; host or cells: CHO cells (selected with G-418)
Sequence (Q8NET8 1-790): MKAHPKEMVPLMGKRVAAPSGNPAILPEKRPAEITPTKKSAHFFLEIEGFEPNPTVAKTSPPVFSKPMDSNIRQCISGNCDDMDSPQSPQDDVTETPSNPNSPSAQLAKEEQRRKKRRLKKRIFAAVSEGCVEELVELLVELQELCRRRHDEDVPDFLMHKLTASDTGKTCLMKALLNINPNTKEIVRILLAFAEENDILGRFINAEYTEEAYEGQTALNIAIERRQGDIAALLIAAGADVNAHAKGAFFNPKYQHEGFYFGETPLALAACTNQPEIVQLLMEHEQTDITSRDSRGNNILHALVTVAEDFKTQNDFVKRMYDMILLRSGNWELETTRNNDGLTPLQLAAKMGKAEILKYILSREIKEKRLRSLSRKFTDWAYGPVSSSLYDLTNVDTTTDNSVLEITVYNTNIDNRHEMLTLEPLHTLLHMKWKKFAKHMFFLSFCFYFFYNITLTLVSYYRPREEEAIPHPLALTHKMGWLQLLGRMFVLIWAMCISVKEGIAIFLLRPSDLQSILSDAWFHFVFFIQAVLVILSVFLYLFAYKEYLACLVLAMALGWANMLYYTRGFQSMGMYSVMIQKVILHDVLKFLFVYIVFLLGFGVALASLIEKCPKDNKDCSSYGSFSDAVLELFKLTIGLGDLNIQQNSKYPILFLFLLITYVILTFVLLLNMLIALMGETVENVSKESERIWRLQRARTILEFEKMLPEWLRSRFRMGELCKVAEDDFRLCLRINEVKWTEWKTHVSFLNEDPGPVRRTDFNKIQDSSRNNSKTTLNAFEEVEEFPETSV
Test: 45Calcium uptake assay: inhibition of 2-APB induced cellular uptake of radioactive calcium
Format: cell-based
Details: 10 μM test compound; human TRPV3 expressing CHO cells; 2-APB 500 μM; read-out: Percentage Inhibition (10 μM)
Kindly return true (1) if reported inhibition at 10 µM is no lower than 90%; return false (0) if it is lower.

>  <Mol Smiles>
COc1cccc(/C=C/c2nc3cc(Cl)cnc3n2-c2ccc(C#N)cn2)c1OC1CCCC1

>  <Category Label>
true (1)

$$$$
>  <Mol Smiles>
COc1cccc(/C=C/c2nc3ccccc3n2-c2ccc(Cl)cn2)c1OC1CCCC1

>  <Category Label>
false (0)

$$$$
>  <Mol Smiles>
COc1cccc(/C=C/c2nc3ccccc3n2-c2ccc(C#N)cn2)c1OCc1ccc(F)cc1F

>  <Category Label>
true (1)

$$$$

QUERY: Quick check: does COc1cccc(/C=C/c2nc3ccccc3n2-c2ccc(C#N)cn2)c1OCc1ccccc1C#N have inhibition at 10 µM greater than or equal to 90%?
RESULT: true (1)

QUERY: Given the entry COc1cccc(/C=C/c2nc3ccccc3n2-c2ccc(C(F)(F)F)cn2)c1OC1CCCC1 , answer whether its inhibition at 10 µM meets or surpasses 90%.
RESULT: true (1)

* * *

biological target: Human TRPV3 (Homo sapiens, UniProt Q8NET8); construct: expressed in transfected cells; host or cells: CHO cells (selected with G-418); experiment: 45Calcium uptake assay: inhibition of 2-APB induced cellular uptake of radioactive calcium; format: cell-based; settings: class symbol; human TRPV3 expressing CHO cells; 2-APB 500 μM
Reported Property: IC50

// solved cases for IC50 follow
>  <Mol Smiles>
COc1cccc(/C=C/c2nc3cc(C(F)(F)F)ccc3n2-c2ccc(C#N)cn2)c1OC1CCCC1

>  <IC50>
100 to 500 nM

$$$$
>  <Mol Smiles>
CCCCCOc1c(/C=C/c2nc3cc(Cl)cnc3n2-c2ccc(C#N)cn2)cccc1OC

>  <IC50>
50 to 100 nM

$$$$
>  <Mol Smiles>
COc1cccc(/C=C/c2nc3cc(Cl)cnc3n2-c2ccc(C#N)cn2)c1OC1CCCC1

>  <IC50>
50 to 100 nM

$$$$
>  <Mol Smiles>
CCOC(=O)c1ccc(-n2c(/C=C/c3cccc(OC)c3OC3CCCC3)nc3ccccc32)nn1

>  <IC50>
100 to 500 nM

$$$$
>  <Mol Smiles>
COc1cccc(/C=C/c2nc3ccc(Cl)cc3n2-c2ccc(C#N)cn2)c1OC1CCCC1

>  <IC50>
50 to 100 nM

$$$$
>  <Mol Smiles>
COc1cccc(/C=C/c2nc3cc(F)c(F)cc3n2-c2ccc(C#N)cn2)c1OCC(C)C

>  <IC50>
100 to 500 nM

$$$$

Noted for CCCCCOc1c(/C=C/c2nc3cc(F)cc(F)c3n2-c2ccc(C#N)cn2)cccc1OC : its IC50 reads 50 to 100 nM

Per the record, N#Cc1ccc(-n2c(/C=C/c3cccc(OC(F)F)c3OCC3CCC3)nc3cc(F)c(F)cc32)nc1 has IC50 of < 50 nM
